# TARGET UNDER TEST: HLA-A*0203 (human)
# TEST NAME: competition vs 125I probe peptide, purified HLA
# CONDITION SET: remark: other sources report otherwise
Non-standard residues stand in square brackets, D forms with d. No end group written: not given here. Abu = CC[C@H](N)C(=O)O
ATTRIBUTE MEASURED: pIC50
Interpret pIC50 as the negative base-10 log of the concentration measured in mol/L.

Solved entries (count: 3):
KMF[Abu]QLAKV [p53.132B4V9] ... 8.04
KMFCQLAKV [p53.132V9] ... 8.11
RMPEAAPPV [p53.65] ... 7.66

Let's switch to this binder now.
pIC50 lookup needed for ILLEDSSGNLV [p53.255L2V11] , thanks.
7.15
